# assay notes: Inhibition of tubulin assembly by Woods method
Criterion: IC50 strictly less than 2 µM. Met: 1.0. Not met: 0.0.

Consider the following illustrative entries.
CO/C(=C\c1ccc(OC)c(O)c1)C(=O)c1cc(OC)c(OC)c(OC)c1 ... 1.0
COc1ccc(/C=C/C(=O)c2cc(OC)c(OC)c(OC)c2)cc1OC ... 0.0
COc1ccc(/C=C/C(=O)c2ccc(OC)c(OC)c2OC)cc1F ... 0.0
COc1cc(OC)c(/C=C/C(=O)c2cc(OC)c(OC)c(OC)c2)c(OC)c1 ... 0.0

Query :: hey, is IC50 for COc1ccc(C(=O)/C=C/c2cc(F)c(OC)c(F)c2)c(OC)c1OC lower than 2 µM or not?
Result :: 0.0

----------
# Tested on: K562
# assay notes: Antiproliferative activity against human K562 cells after 5 days by MTT assay
# Type: functional, cell-based
# reported conditions: Homo sapiens, K562, 120 h
measurement type: pIC50
Answer as the number alone; pIC50 is minus log10 of concentration in mol/L.

Memo: COc1cc(C(=O)/C=C/c2ccc(Cl)cc2)cc(OC)c1OC , reported pIC50: 5.82

Memo: COc1ccc(/C=C(\C)C(=O)c2cc(OC)c(OC)c(OC)c2)cc1[N+](=O)[O-] , reported pIC50: 7.22

----------
# assay notes: Displacement of [3H]colchicine from tubulin assessed as bound colchicine at […] incubated in dark for 2 hrs by scintillation spectroscopy
Quick reference: Activity of the listed items.
Please respond with the number in % and leave the unit unwritten.

The cases that follow already have their Activity on record.
CO/C(=C\c1ccc(OC)c(F)c1)C(=O)c1cc(OC)c(OC)c(OC)c1 ... 8
COc1ccc(/C=C(\C)C(=O)c2cc(OC)c(OC)c(OC)c2)cc1O ... 8

Next item in the queue.
Memo: COc1ccc(/C=C\c2cc(OC)c(OC)c(OC)c2)cc1O , reported Activity: 8

----------
# assay notes: Inhibition of tubulin assembly by Woods method
measurement type: pIC50
Answer as the number alone; pIC50 is minus log10 of concentration in mol/L.

The cases that follow already have their pIC50 on record.
COc1ccc(C(=O)/C(C)=C/c2ccc(OC)c(OP(=O)([O-])[O-])c2)cc1.[Na+].[Na+] ... 5.51
COc1ccc(/C=C/C(=O)c2ccc(OC)c(OC)c2OC)cc1O ... 6.35
COc1ccc(/C=C/C(=O)c2cc(OC)c(OC)c(OC)c2)cc1F ... 5.92
COc1ccc(/C=C\c2cc(OC)c(OC)c(OC)c2)cc1O ... 7.00

Memo: CO/C(=C\c1cc(F)c(OC)c(F)c1)C(=O)c1cc(OC)c(OC)c(OC)c1 , reported pIC50: 5.77

Memo: COc1ccc(/C=C(\C)C(=O)c2cc(OC)c(OC)c(OC)c2)cc1F , reported pIC50: 6.19

Memo: CO/C(=C\c1ccc(OC)c(F)c1)C(=O)c1cc(OC)c(OC)c(OC)c1 , reported pIC50: 6.33

Memo: COc1cc(C(=O)/C(C)=C/c2cc(F)c(OC)c(F)c2)cc(OC)c1OC , reported pIC50: 5.62

Memo: COc1ccc(CC(C)C(=O)c2cc(OC)c(OC)c(OC)c2)cc1O (stereo not given) , reported pIC50: 5.40

Memo: COc1cc(OC)c(C(=O)/C=C/c2ccc(OC)c(OC)c2OC)c(OC)c1 , reported pIC50: 4.82

Memo: COc1ccc(OC)c(C(=O)/C(C)=C/c2ccc(N(C)C)cc2)c1 , reported pIC50: 5.00
